- Tested Target: D(2) dopamine receptor (Rattus norvegicus)
- Sequence (P61169 whole entry): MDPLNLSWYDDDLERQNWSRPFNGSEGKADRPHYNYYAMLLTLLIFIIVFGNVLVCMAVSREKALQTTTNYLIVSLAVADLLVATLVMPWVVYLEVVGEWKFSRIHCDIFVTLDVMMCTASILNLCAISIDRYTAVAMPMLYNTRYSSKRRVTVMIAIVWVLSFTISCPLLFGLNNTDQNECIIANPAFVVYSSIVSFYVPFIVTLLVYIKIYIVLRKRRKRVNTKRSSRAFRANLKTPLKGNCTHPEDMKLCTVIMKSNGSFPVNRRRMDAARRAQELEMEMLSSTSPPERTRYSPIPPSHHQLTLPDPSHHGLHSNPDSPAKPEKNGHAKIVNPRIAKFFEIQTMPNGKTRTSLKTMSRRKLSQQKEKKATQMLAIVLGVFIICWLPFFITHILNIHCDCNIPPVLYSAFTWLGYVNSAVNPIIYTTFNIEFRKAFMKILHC
- Assay Explanation: Displacement of [3H]-spiperone from dopamine D2 receptor in rat striatum
Measurement Name: Ki
Your answer should be a number followed by the unit of measure.

Return reported Ki; argument: `Cl.Cn1c(=O)c2c(ncn2CCCCCN2CCN(c3ccccc3)CC2)n(C)c1=O` 356 nM

Return reported Ki; argument: `COc1ccccc1N1CCN(CCCCn2cnc3c2c(=O)n(C)c(=O)n3C)CC1` 65 nM

Return reported Ki; argument: `Cl.Cn1c(=O)c2c(ncn2CCCCCN2CCN(c3cccc(Cl)c3)CC2)n(C)c1=O` 40 nM

Return reported Ki; argument: `Cn1c(=O)c2c(ncn2CCCN2CCc3ccccc3C2)n(C)c1=O` 2710 nM

Return reported Ki; argument: `Cl.Cn1c(=O)c2c(ncn2CCCCN2CCN(c3cccc(Cl)c3)CC2)n(C)c1=O` 195 nM

Return reported Ki; argument: `Cn1c(=O)c2c(ncn2CCCCN2CCN(c3cccc(Cl)c3Cl)CC2)n(C)c1=O` 15 nM

Return reported Ki; argument: `Cn1c(=O)c2c(ncn2CCCCN2CCc3ccccc3C2)n(C)c1=O` 7820 nM

Return reported Ki; argument: `COc1ccccc1N1CCN(CCCn2cnc3c2c(=O)n(C)c(=O)n3C)CC1` 944 nM

Return reported Ki; argument: `Cn1c(=O)c2c(ncn2CCCCCN2CCc3ccccc3C2)n(C)c1=O` 1220 nM

Return reported Ki; argument: `Cn1c(=O)c2c(ncn2CCCN2CCN(c3cccc(Cl)c3)CC2)n(C)c1=O` 3190 nM

Return reported Ki; argument: `Cn1c(=O)c2c(ncn2CCCCN2CCN(c3ccccc3)CC2)n(C)c1=O` 1010 nM

Return reported Ki; argument: `COc1ccccc1N1CCN(CCCCCn2cnc3c2c(=O)n(C)c(=O)n3C)CC1.Cl` 33 nM

Return reported Ki; argument: `Cn1c(=O)c2c(ncn2CCCCN2CCN(c3ccc(Cl)c(Cl)c3)CC2)n(C)c1=O` 73 nM

Return reported Ki; argument: `Cn1c(=O)c2c(ncn2CCCN2CCN(c3ccccc3)CC2)n(C)c1=O` 1090 nM

---

Would you kindly list pKi for each of these molecules?
// scale note: pKi = -log10(conc_M); give the bare number

Find pKi (5-hydroxytryptamine receptor 6 (Homo sapiens)) for the entry `COc1ccccc1N1CCN(CCCCn2cnc3c2c(=O)n(C)c(=O)n3C)CC1` 5.71

Find pKi (5-hydroxytryptamine receptor 6 (Homo sapiens)) for the entry `Cn1c(=O)c2c(ncn2CCCN2CCc3ccccc3C2)n(C)c1=O` 4.91

Find pKi (5-hydroxytryptamine receptor 6 (Homo sapiens)) for the entry `Cn1c(=O)c2c(nc(N3CCOCC3)n2CCCCN2CCN(c3cccc(Cl)c3)CC2)n(C)c1=O` 6.68

Find pKi (5-hydroxytryptamine receptor 6 (Homo sapiens)) for the entry `Cl.Cn1c(=O)c2c(ncn2CCCCN2CCN(c3cccc(Cl)c3)CC2)n(C)c1=O` 5.29

Find pKi (5-hydroxytryptamine receptor 6 (Homo sapiens)) for the entry `COc1ccccc1N1CCN(CCCCCn2cnc3c2c(=O)n(C)c(=O)n3C)CC1.Cl` 5.05

Find pKi (5-hydroxytryptamine receptor 6 (Homo sapiens)) for the entry `Cl.Cn1c(=O)c2c(ncn2CCCCCN2CCN(c3ccccc3)CC2)n(C)c1=O` 4.99

---

Would you kindly list pKi for each of these compounds?
// scale note: pKi = -log10(conc_M); give the bare number

Find pKi (5-hydroxytryptamine receptor 7 (Homo sapiens)) for the entry `Cn1c(=O)c2c(ncn2CCCCN2CCN(c3ccccc3)CC2)n(C)c1=O` 5.94

Find pKi (5-hydroxytryptamine receptor 7 (Homo sapiens)) for the entry `Cn1c(=O)c2c(ncn2CCCCN2CCN(c3ccc(Cl)c(Cl)c3)CC2)n(C)c1=O` 6.75

Find pKi (5-hydroxytryptamine receptor 7 (Homo sapiens)) for the entry `COc1ccccc1N1CCN(CCCCCn2cnc3c2c(=O)n(C)c(=O)n3C)CC1.Cl` 6.53

Find pKi (5-hydroxytryptamine receptor 7 (Homo sapiens)) for the entry `Cl.Cn1c(=O)c2c(ncn2CCCCN2CCN(c3cccc(Cl)c3)CC2)n(C)c1=O` 6.32

Find pKi (5-hydroxytryptamine receptor 7 (Homo sapiens)) for the entry `Cn1c(=O)c2c(ncn2CCCCN2CCc3ccccc3C2)n(C)c1=O` 6.20
